Biological target: T1, MACP, CP of an uncharacterized NRP/PK gene cluster from M. aeruginosa NIES843
T1 chain: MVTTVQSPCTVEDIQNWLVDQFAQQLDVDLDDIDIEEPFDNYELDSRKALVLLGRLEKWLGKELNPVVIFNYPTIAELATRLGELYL
Please go through the items and note down their Km.
Write the numeric value and append its unit.

**Query** Quick one: Km of APPT, Sfp-like phosphopantetheinyl transferase (PPTase) from Anabaena sp. PCC7120 (protein) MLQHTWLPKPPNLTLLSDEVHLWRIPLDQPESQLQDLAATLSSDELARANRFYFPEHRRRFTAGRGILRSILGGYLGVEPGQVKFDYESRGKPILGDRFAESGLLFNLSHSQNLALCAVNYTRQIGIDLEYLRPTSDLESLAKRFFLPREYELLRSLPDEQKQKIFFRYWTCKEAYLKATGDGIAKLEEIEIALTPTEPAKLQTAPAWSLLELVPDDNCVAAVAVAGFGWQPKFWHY ?
**Result** 7.9 µM

**Query** Quick one: Km of MPPT, Sfp-like phosphopantetheinyl transferase (PPTase) from Microcystis aeruginosa NIES843 (protein) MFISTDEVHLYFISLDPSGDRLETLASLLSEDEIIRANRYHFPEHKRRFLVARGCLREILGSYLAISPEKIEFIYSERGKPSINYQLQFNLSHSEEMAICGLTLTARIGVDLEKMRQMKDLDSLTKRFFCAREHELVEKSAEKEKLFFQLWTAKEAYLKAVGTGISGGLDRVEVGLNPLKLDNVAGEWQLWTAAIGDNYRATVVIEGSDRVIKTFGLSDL ?
**Result** 4.9 µM

**Query** Quick one: Km of SPPT, Sfp-like phosphopantetheinyl transferase (PPTase) from Synechocystis sp. PCC6803 (protein) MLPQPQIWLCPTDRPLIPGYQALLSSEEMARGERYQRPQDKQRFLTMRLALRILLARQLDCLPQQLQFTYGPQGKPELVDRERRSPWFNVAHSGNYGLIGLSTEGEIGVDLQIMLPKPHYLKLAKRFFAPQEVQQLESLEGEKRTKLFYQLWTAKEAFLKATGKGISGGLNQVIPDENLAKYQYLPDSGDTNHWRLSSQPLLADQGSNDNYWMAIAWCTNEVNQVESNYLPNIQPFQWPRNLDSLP ?
**Result** 22 µM
